experimental_parameters: in ethanol, 293.2 K
reported_metric: solubility (mole fraction)

mol_smiles	reported_metric	observed
CC(C)=CCOc1c2occc2cc2ccc(=O)oc12	solubility (mole fraction)	0.00454

====

experimental_parameters: in ethanol, 323.2 K
reported_metric: solubility (mole fraction)

mol_smiles	reported_metric	observed
CC(C)=CCOc1c2occc2cc2ccc(=O)oc12	solubility (mole fraction)	0.0288

====

experimental_parameters: in water, 293.2 K

mol_smiles	solubility (mole fraction)
CC(C)=CCOc1c2occc2cc2ccc(=O)oc12	1.03e-06

====

experimental_parameters: in ethanol, 308.2 K

mol_smiles	solubility (mole fraction)
CC(C)=CCOc1c2occc2cc2ccc(=O)oc12	0.0118

====

experimental_parameters: in water, 288.2 K
reported_metric: solubility (mole fraction)

mol_smiles	observed
CC(C)=CCOc1c2occc2cc2ccc(=O)oc12	7.4e-07

====

experimental_parameters: in ethanol, 298.2 K

mol_smiles	solubility (mole fraction)
CC(C)=CCOc1c2occc2cc2ccc(=O)oc12	0.0063

====

experimental_parameters: in ethanol, 318.2 K
reported_metric: solubility (mole fraction)

mol_smiles	reported_metric	observed
CC(C)=CCOc1c2occc2cc2ccc(=O)oc12	solubility (mole fraction)	0.0215

====

experimental_parameters: in ethanol, 313.2 K

mol_smiles	solubility (mole fraction)
CC(C)=CCOc1c2occc2cc2ccc(=O)oc12	0.016

====

experimental_parameters: in ethanol, 303.2 K
reported_metric: solubility (mole fraction)

mol_smiles	reported_metric	observed
CC(C)=CCOc1c2occc2cc2ccc(=O)oc12	solubility (mole fraction)	0.00865

====

experimental_parameters: in water, 313.2 K
reported_metric: solubility (mole fraction)

mol_smiles	observed
CC(C)=CCOc1c2occc2cc2ccc(=O)oc12	1.46e-06

====

experimental_parameters: in water, 328.2 K
reported_metric: solubility (mole fraction)

mol_smiles	observed
CC(C)=CCOc1c2occc2cc2ccc(=O)oc12	1.81e-06

====

experimental_parameters: in ethanol, 288.2 K
reported_metric: solubility (mole fraction)

mol_smiles	observed
CC(C)=CCOc1c2occc2cc2ccc(=O)oc12	0.00325

Entry source: BigSolDB 2.1
